B1: Steroid hormone receptor ERR2, residues 100 to 176; numbered along this chain, O95718 (parent)
chain: KRLCLVCGDIASGYHYGVASCEACKAFFKRTIQGNIEYSCPATNECEITKRRRKSCQACRFMKCLKVGMLKEGVRLD

variants of: B1; assay: abundance fitness (aPCA) (normalised: wild type 0, dead -1); higher = more abundant; growth selection in yeast, the domain comes from the species named; settings: Homo sapiens
Would you please tag the item Condition met when its abundance fitness is -0.3 or above, and Condition not met when it is below?

Q: // inclusive: abundance fitness at least -0.3? input: `K54D`
A: Condition met

Q: // inclusive: abundance fitness at least -0.3? input: `K25Y`
A: Condition met

Q: // inclusive: abundance fitness at least -0.3? input: `F28S`
A: Condition not met

Q: // inclusive: abundance fitness at least -0.3? input: `G34D`
A: Condition met

Q: // inclusive: abundance fitness at least -0.3? input: `Y16K`
A: Condition not met

Q: // inclusive: abundance fitness at least -0.3? input: `H15Y`
A: Condition met

Q: // inclusive: abundance fitness at least -0.3? input: `R53D`
A: Condition met

Q: // inclusive: abundance fitness at least -0.3? input: `A19F`
A: Condition not met

Q: // inclusive: abundance fitness at least -0.3? input: `F28P`
A: Condition not met

Q: // inclusive: abundance fitness at least -0.3? input: `V18Y`
A: Condition not met
